- TARGET OR SYSTEM: CCR2 (Homo sapiens, UniProt P41597)
- Construct: Membranes were prepared from THP-1 cells; endogenous in cells; host or cells: THP-1 cells (membrane preparation)
- Sequence (P41597 1-360 isoform P41597-2): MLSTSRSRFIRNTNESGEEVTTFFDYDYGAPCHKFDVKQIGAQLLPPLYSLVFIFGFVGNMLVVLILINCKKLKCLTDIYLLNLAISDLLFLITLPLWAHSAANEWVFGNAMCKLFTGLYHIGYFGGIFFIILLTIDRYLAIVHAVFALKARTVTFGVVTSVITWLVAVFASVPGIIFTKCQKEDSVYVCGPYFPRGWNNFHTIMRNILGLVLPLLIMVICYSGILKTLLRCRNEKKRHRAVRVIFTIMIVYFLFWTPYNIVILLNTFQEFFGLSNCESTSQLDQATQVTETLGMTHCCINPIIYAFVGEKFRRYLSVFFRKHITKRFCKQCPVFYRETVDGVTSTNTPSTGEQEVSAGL
- PROCEDURE SUMMARY: CCR2 receptor membrane binding assay ([125I]MCP-1, THP-1 cell membranes, SPA beads)
- MEASUREMENT CONDITIONS: @ 10 μM test compound; THP-1 membranes; read-out: CCR2 % ctrl @ 10 μM
Recorded remaining activity at 10 µM split into classes low range: < 10%; mid range: ≥ 10% and < 20%; high range: ≥ 20%

# COMPOUND, CLASS ASSIGNMENT
records = [
    ("CNS(=O)(=O)C1CCN(C2CCN(C(=O)c3ncnc(NCc4ccc(C(C)(C)C)cc4)c3C)CC2)CC1 [Example 221]", "mid range"),
    ("Cc1c(NCc2ccc(Cl)c(F)c2)ncnc1C(=O)N1CCC(N2CCC(NS(C)(=O)=O)CC2)CC1 [Example 76]", "mid range"),
    ("CCc1c(NCc2cccc(-c3ccccc3)c2)ncnc1C(=O)N1CCC(N2CCC(O)CC2)CC1 [Example 282]", "high range"),
    ("Cc1c(NCc2ccc(C(C)(C)C)nc2)ncnc1C(=O)N1CCC(N2CCC(N(C)S(C)(=O)=O)CC2)CC1 [Example 54]", "mid range"),
    ("CNC(=O)C1CCN(C2CCN(C(=O)c3ncnc(NCc4ccc(C(C)(C)C)cc4)c3C)CC2)CC1 [Example 261]", "low range"),
    ("Cc1c(C(=O)N2CCC(N3CCC(NS(C)(=O)=O)CC3)CC2)ccnc1NCc1ccc(Cl)c(Cl)c1 [Example 274]", "high range"),
    ("Cc1c(NCc2cccc(-c3ccccc3)c2)ncnc1C(=O)N1CCC(N2CCOC(C)C2)CC1 (stereo not shown) [Example 234]", "mid range"),
    ("Cc1c(NCc2ccc(C(C)(C)C)cc2)ncnc1C(=O)N1CCC(N2CCC(n3c(C)nnc3C)CC2)CC1 [Example 212]", "high range"),
]

### Prompt Sort into band: COC1CCN(C2CCN(C(=O)c3ncnc(NCc4ccc(C(C)(C)C)cc4)c3C)CC2)CC1 [Example 208]
### Response low range

### Prompt State the band of CCc1c(NCCc2ccc(Cl)c(Cl)c2)ncnc1C(=O)N1CCC(N2CCOCC2)CC1 [Example 281]
### Response high range

### Prompt Hello team, could you let me know which band the following compound falls into: CCS(=O)(=O)N(C)C1CCN(C2CCN(C(=O)c3ncnc(NCc4ccc(Cl)c(Cl)c4)c3C)CC2)CC1 [Example 35]
### Response low range

### Prompt Bin this entry: Cc1c(NCc2ccc(Cl)c(Cl)c2)ncnc1C(=O)N1CCC(N2CCC(S(N)(=O)=O)CC2)CC1 [Example 228]
### Response mid range
